- Tested on: B6 male mice
- METHOD_SUMMARY: Organ weights (thymus, spleen, adrenal gland, kidney) after three-month treatment
- Assay type: in vivo, mouse
- COND: s.c. 1 mg/kg daily, three months
- Protocol: B6 male mice (8-week-old) were daily subjected for three months to a subcutaneous injection of either vehicle (NaCl 0.9%), Dex, CpdX, CpdX(eA), CpdX(eB), CpdX-D3, CpdX-D3(eA) or CpdX-D3(eB) (1 mg/kg body weight, diluted in vehicle). Following these treatments, four organs (thymus, spleen, adrenal gland and kidney) were harvested and weighted.
ENDPOINT: spleen weight

>>> df
                                   compound  measured_result
0  COc1ccc(F)cc1C(C)(C)CC(O)(CNc1ccc2c(c1)COC2=O)C(F)(F)F (single isomer, unassigned) [CpdX(eB)]    not decreased
1  [2H]C([2H])([2H])Oc1ccc(F)cc1C(C)(C)CC(O)(CNc1ccc2c(c1)COC2=O)C(F)(F)F (stereo not drawn) [CpdX-D3(eB)]    not decreased
2  COc1ccc(F)cc1C(C)(C)CC(O)(CNc1ccc2c(c1)COC2=O)C(F)(F)F (racemic) [CpdX]    not decreased
3  [2H]C([2H])([2H])Oc1ccc(F)cc1C(C)(C)CC(O)(CNc1ccc2c(c1)COC2=O)C(F)(F)F (racemic) [CpdX-D3]    not decreased
4  COc1ccc(F)cc1C(C)(C)CC(O)(CNc1ccc2c(c1)COC2=O)C(F)(F)F (single isomer, unassigned) [CpdX(eA)]    not decreased
5  [2H]C([2H])([2H])Oc1ccc(F)cc1C(C)(C)CC(O)(CNc1ccc2c(c1)COC2=O)C(F)(F)F (stereo not drawn) [CpdX-D3(eA)]    not decreased

Origin of the recorded values: patent US20190151283A1
